Tested on: C57/B1/6J mice
Assay: Example 6: milk fat percentage of mice fed oleic acid isomer diets (creamatocrit)
Format: in vivo
Details: isomer replaces about 25% of dietary fat, four days
Endpoint name: Milk fat on day 10 versus day 6 of lactation

CCCCCC/C=C\CCCCCCCCCC(=O)O [cis-11]    numerically lower
CCCCCC/C=C/CCCCCCCCCC(=O)O [trans-11, trans vaccinic acid]    numerically lower
